The reported numbers originate from patent US20150376269A1.

Target under test: T1, serum resistance-associated protein (SRA) from Trypanosoma brucei rhodesiense, recombinant SRA (SEQ ID NO: … (Trypanosoma brucei rhodesiense, UniProt O96637 31-274))
T1 construct: also called SRA protein
T1 sequence: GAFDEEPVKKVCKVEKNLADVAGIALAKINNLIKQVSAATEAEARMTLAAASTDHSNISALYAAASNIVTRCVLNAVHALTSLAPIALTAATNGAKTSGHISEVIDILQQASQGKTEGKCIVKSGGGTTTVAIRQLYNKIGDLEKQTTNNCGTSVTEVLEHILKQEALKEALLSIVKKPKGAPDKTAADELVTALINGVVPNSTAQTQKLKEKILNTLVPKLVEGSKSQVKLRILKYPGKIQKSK
Test summary: SPR, 25C, t1/2 pH 7.4 over pH 4.5
Each entry below lists one item and its recorded t ½ ratio pH 7.4/pH 4.5 value.
Lab note: write the figure by itself, no unit.

// known answers, use as guide
binder="H1H10064P (antibody, V domains shown, Fully human antibody with human IgG1 Fc (prefix H1H)) VH: QVQLVQSGAEVKKPGSSVKVSCKASGGSFSSNVFSWVRQAPGQGLEWMGGIIPIFGSANYAQKFQGRVTITTDESTTTAYMELSSLRSEDTAVYYCAIGGTGPSGYNWNYGAFYIWGQGTMVTVSS VL: DIQMTQSPSSLSASVGDRVTITCRASQGIRNDLGWYQQKPGIAPKRLIYAASSLQSGVPSRFSGSGSGTEFTLTISSLQPEDFATYYCLQHNSYPYTFGQGTKLEIK" parameter_measured="t ½ ratio pH 7.4/pH 4.5" recorded_value=9
binder="H2bM10093N (antibody, V domains shown, Chimeric antibody, human variable domains and mouse constant domains; also called H2aM10093N; H2M10093N) VH: EVQLVESGGGLVKPGGSLRLSCVASGFTLSGYSMNWVRQAPGKGLEWVSSISTSSSYIYYADSVQGRFTISRDNAKNSLYLQMNSLRAEDTAVYYCVRKGANWIYFDYWGQGTLVTVSS VL: DIQMTQSPSSVSASVGDRVTITCRASQGISSLLAWFQQKPGKAPNLLIYAASSLQSGVPSRFSGSGSGTDFTLTISSLQPEDFATYYCQQAKSFPFTFGPGTKVDIK" parameter_measured="t ½ ratio pH 7.4/pH 4.5" recorded_value=20

Then there is this binder:
Consider H2aM10200N (antibody, V domains shown, Hybridoma-derived chimeric antibody, human variable domains and mouse constant domains (mouse Fc, prefix H2aM); also called H2M10200N) VH: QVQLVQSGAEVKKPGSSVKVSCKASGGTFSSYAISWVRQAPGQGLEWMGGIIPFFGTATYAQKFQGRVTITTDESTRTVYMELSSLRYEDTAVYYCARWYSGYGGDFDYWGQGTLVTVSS VL: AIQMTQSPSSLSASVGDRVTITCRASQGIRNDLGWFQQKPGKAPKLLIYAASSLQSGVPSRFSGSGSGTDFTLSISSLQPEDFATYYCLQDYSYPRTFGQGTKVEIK . Its measured t ½ ratio pH 7.4/pH 4.5 is 77
